Where do the numbers come from? From patent US20240294622A1.

Molecular target: T1, HGREM1-His (ACRO) (human, UniProt O60565 25-184)
T1 construct: Lys25-Asp184 of NP_037504 with C-terminal polyhistidine tag (ACRO GR1-H52H3); they are put here; also called hGREM1 (ACRO); human gremlin (ACRO)
T1 sequence: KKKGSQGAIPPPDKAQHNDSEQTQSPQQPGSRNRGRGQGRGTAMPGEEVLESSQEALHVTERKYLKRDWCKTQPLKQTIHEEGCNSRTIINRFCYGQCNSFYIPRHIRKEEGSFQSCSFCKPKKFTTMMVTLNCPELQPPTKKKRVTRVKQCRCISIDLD
Test: ELISA, binding to hGremlin-his
outcome.measure: EC50 (µg/mL)
Please respond with the number in µg/mL and leave the unit unwritten.

# lookup: EC50 of Hu22F1_HdLb (antibody, V domains shown) VH: QAQLVQSGAEVKKPGASVKVSCKASGYSFTDYYMNWLRQAPGQGLEWIGDINPKDGDSGYSHKFKGRATLTVDKSTSTVYMELRSLRSEDTAVYYCASGFTTVVARGDYWGQGTTVTVSS VL: DVVMTQSPLSLPVTLGQPASISCKSSQSLLDSDGKTYLNWLQQRPGQSPRRLIYLVSKLDSGFPDRFSGSGSGTDFTLKISRVEAEDVGVYYCWQGTHFPYTFGGGTKVEIK
0.0103

# lookup: EC50 of Hu22F1_HcLa (antibody, V domains shown) VH: QAQLVQSGAEVKKPGASVKVSCKASGYSFTDYYMNWVRQAPGQGLEWMGDINPKDGDSGYSHKFKGRVTLTVDKSTSTVYMELRSLRSEDTAVYYCASGFTTVVARGDYWGQGTTVTVSS VL: DVVMTQSPLSLPVTLGQPASISCKSSQSLLDSDGKTYLNWLQQRPGQSPRRLIYLVSKLDSGVPDRFSGSGSGTDFTLKISRVEAEDVGVYYCWQGTHFPYTFGGGTKVEIK
0.312

# lookup: EC50 of Hu14E3_HbLa (antibody, IgG1, V domains shown, humanized) VH: QIQLVQSGSELKKPGASVKVSCKASGYTFTTYGMAWMRQAPGQGLEWMGWINTLSGEPTYADDFKGRFAFSLDTSVSTAYLQISSLKAEDTAVYYCAREPMDYWGQGTMVTVSS VL: DVVMTQSPLSLPVTLGQPASISCKSSQSLLDSDGKTYLSWLQQRPGQSPRRLIYLVSKLDSGVPDRFSGSGSGTDFTLKISRVEAEDVGVYYCWQGAHFPLTFGQGTKLEIK
0.006

# lookup: EC50 of Hu22F1_HbLa (antibody, V domains shown) VH: QVQLVQSGAEVKKPGASVKVSCKASGYSFTDYYMNWVRQAPGQGLEWMGDINPKDGDSGYSHKFKGRVTMTVDKSTSTVYMELSSLRSEDTAVYYCASGFTTVVARGDYWGQGTTVTVSS VL: DVVMTQSPLSLPVTLGQPASISCKSSQSLLDSDGKTYLNWLQQRPGQSPRRLIYLVSKLDSGVPDRFSGSGSGTDFTLKISRVEAEDVGVYYCWQGTHFPYTFGGGTKVEIK
1.04
